Target: T1, 4H2513-AA
T1 chain: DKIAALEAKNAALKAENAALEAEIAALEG
Assay: two-hybrid library CCmax;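 note: natural log of median RNA to DNA barcode read ratio; higher means stronger binding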
Details: mean of both orientations
Lab note: anything with interaction score at or over -0.3 counts as Condition met; the rest go in Condition not met.

{"columns": ["BINDER", "DISCRETE_LABEL"],
 "data": [
  ["DKIAALEAENAALEAKIAALEAENAALEG [4H2211-AA]", "Condition not met"],
  ["DEIAALKAKNAALKAKNAALKAEIAALEG [4H1017-AA]", "Condition not met"],
  ["DKIAALEAENAALEAKNAALKAKIAALKG [4H2238-AA]", "Condition met"],
  ["DENAALEAENAALEAKIAALKAKIAALKG [4H1198-AA]", "Condition met"],
  ["DENAALEAKIAALKAKNAALKAKIAALEG [4H1405-AA]", "Condition not met"],
  ["DENAALEAEIAALKAEIAALKAKNAALEG [4H1103-AA]", "Condition not met"],
  ["DENAALEAEIAALEAKNAALKAEIAALKG [4H1082-AA]", "Condition met"],
  ["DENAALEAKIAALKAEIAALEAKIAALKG [4H1350-AA]", "Condition not met"]
]}
